Where do these numbers come from? They come from ChEMBL document CHEMBL1201862.

Listed here are compounds together with their documented GI50.
system: HL-60; assay: NCI tumour cell line growth inhibition, 48 h
Active and inactive are the calls of the source. No stated cut-off is given here; in the data, active = GI50 up to about 1.1 µM and inactive = higher.

These recorded examples may help you get a feel for the data.
compound="Cc1ccc([N+](=O)[O-])cc1S(=O)(=O)Nc1ccc(C2=NOC(c3ccco3)C2)cc1 (stereo unspecified)" quantity=GI50 result="21.3 µM (inactive)"
compound=COc1c(O)c2c3c(cc(C)cc3c1C(C)C)OC2 quantity=GI50 result="> 100 µM (inactive)"
compound="O=C1CSC(c2cccc(Oc3ccccc3)c2)N1c1ccc(Cl)cc1 (stereo unspecified)" quantity=GI50 result="24.9 µM (inactive)"

## Input GI50 of O=c1[nH]c(=O)n(C2OC(CO)C(O)C2O)cc1/N=N/NCc1ccccc1 (stereo unspecified) on HL-60?
## Output > 64.3 µM (inactive)

----------
system: MCF7; test: NCI tumour cell line growth inhibition, 48 h
The source made the active and inactive calls. Rule as the data show it: active = GI50 up to about 1.1 µM and inactive = higher.
Pick from 1 for active, 0 for inactive when you respond.

compound=COC(=O)C1=C(C)N2[C@H](C(=O)O)CO[C@@]2(C)[C@H](C(=O)OC)[C@H]1c1cccc([N+](=O)[O-])c1 classification=0
compound="O=C1C2CCN(CC2)C1CN1CCOCC1 (stereo unspecified)" classification=0
compound="C[N+](C)(C)CC(=O)N/N=C(/CC1OC(=O)c2ccccc21)c1ccccc1O (stereo unspecified)" classification=0
compound="CCOC(=O)C1CC(O)C(=O)N1C (stereo unspecified)" classification=0

## Input Dear all, I need the recorded test outcome for "c1ccc(COc2ccc(CC3SCCCS3)cc2)cc1" , thank you.
## Output 0

## Input Dear all, I need the recorded test outcome for "COc1ccc2c(CC(=O)O)cc(=O)oc2c1" , thank you.
## Output 0

## Input Dear all, I need the recorded test outcome for "Oc1c(Br)c(-c2ccccc2)nc2ccccc12" , thank you.
## Output 0

## Input Dear all, I need the recorded test outcome for "CCOC(=O)C1(C(=O)OCC)COS(=O)OC1" , thank you.
## Output 0

## Input Dear all, I need the recorded test outcome for "c1ccc(CNCCCCNCCCNCc2ccccc2)cc1" , thank you.
## Output 0

## Input Dear all, I need the recorded test outcome for "C/C(=N\Nc1ncnc2ccccc12)c1ccccn1" , thank you.
## Output 1

## Input Dear all, I need the recorded test outcome for CC(=O)NC1COC(COC(=O)CCCCCCCCCCNC(=O)c2ccc([N+](=O)[O-])c3c(=O)c4ccccc4[nH]c23)C(O)C1OC(C)C(=O)NC(C(=O)NC(CCC(N)=O)C(=O)OCc1ccccc1)C(C)C (stereo unspecified) , thank you.
## Output 0

----------
test system: SK-MEL-2; assay: NCI tumour cell line growth inhibition, 48 h
The source made the active and inactive calls. No stated cut-off is given here; in the data, active = GI50 up to about 1.1 µM and inactive = higher.
Pick from active, inactive when you respond.

Answered cases to consult:
compound=C/C(=N\Nc1nc2cc(C(F)(F)F)ccc2s1)c1ccccn1 tgt=SK-MEL-2 classification=active
compound=CC1=CC(=O)c2c(C=O)c(O)c(O)c(C(C)C)c2C1=O tgt=SK-MEL-2 classification=inactive
compound=CCOC(=O)/C=C1\c2ccccc2C(=O)N1CC(=O)OCC tgt=SK-MEL-2 classification=inactive
compound=O=C1C(c2c(O)[nH]c3ccccc23)=Nc2ccc(Br)cc21 tgt=SK-MEL-2 classification=inactive
compound=CN(C)C(=O)c1nnsc1NN=O tgt=SK-MEL-2 classification=inactive
compound="CC(=O)O[C@H]1CC[C@H]2[C@@H]3CCC4C(C)=NNC(=O)C4[C@H]3CC[C@]12C (some centres not stated)" tgt=SK-MEL-2 classification=inactive
compound="CN1c2ccccc2C2c3c(O)ccc(O)c3C=C([N+](=O)[O-])C21 (configuration not stated)" tgt=SK-MEL-2 classification=inactive
compound=Cn1cnc([N+](=O)[O-])c1Sc1nccc(O)n1 tgt=SK-MEL-2 classification=inactive
compound=CCNCCC1(CC)C(=O)NC(=O)NC1=O tgt=SK-MEL-2 classification=inactive
compound=C/C=C/CP(=O)(c1ccccc1)c1ccccc1 tgt=SK-MEL-2 classification=inactive

## Input Dear all, I need the recorded test outcome for "O=C(CCc1cc(O)cc(O)c1)NCCc1cc(O)cc(O)c1" , thank you.
## Output inactive

## Input Dear all, I need the recorded test outcome for "CCCCCCCCCc1cccc(N2C(N)=NC(N)=NC2(C)C)c1" , thank you.
## Output active
